Tested on: K-562 leukemia
ASSAY REMARKS: NCI tumour cell line growth inhibition, 48 h
RECORDED ENDPOINT: TGI

- Cn1c(=O)ccc2cc(C(=O)c3ccccc3)ccc21: > 100 µM
- CCC1(O)CC(c2ccccc2)N(C)C(c2ccccc2)C1 (centres undefined): > 100 µM
- O=C1/C=C/[C@@H](O)[C@@H]2C[C@@H](O)C[C@H]2/C=C/CCCCO1: > 100 µM

Request: Data request, read-out TGI, for COc1ccc(-c2nn(C(=O)c3cc(OC)c(OC)c(OC)c3)c3cc(N)ccc23)cc1
Result: 10.5 µM

Request: Entry Nc1[nH]nc2c1Cc1c(n(Cc3ccc(Cl)cc3)c3ccccc13)C(=O)N2 has what TGI?
Result: > 100 µM

Request: Can you share its TGI? I mean this compound: COc1cc(C2C(Cl)C(=O)N2NC(=O)c2ccccc2O)cc(OC)c1OC (centres undefined)
Result: > 10 µM

Request: Recorded TGI of O=[N+]([O-])c1cnccc1-n1nnc2ccccc21 , please.
Result: > 100 µM

Request: Requested read-out: TGI. Entry: COc1ccc(-n2cc(-c3ccc(F)cc3)[nH]c2=O)cc1OC
Result: > 100 µM

Request: Reported TGI, compound O=C(CN1CCOCC1)c1ccc2c(c1)oc(=O)n2CCN1CCCCC1 : ____
Result: > 100 µM

Request: Returns the measured TGI for the input compound. Input: O=C(Nc1ccc(-n2cc(-c3ccncc3)c(-c3ccc(Cl)c(O)c3)n2)cc1)c1ccc(Cl)c(C(F)(F)F)c1
Result: 4.09 µM

Request: Recorded TGI of COc1cc2oc(=O)cc(C)c2c(OC)c1OC , please.
Result: > 100 µM

Request: What TGI value was documented for this compound, CC(C)[Si](CC1=CCCCC12C(=O)N(COCC[Si](C)(C)C)c1ccccc12)(C(C)C)C(C)C (centres undefined) ?
Result: > 100 µM

---

Tested on: RXF 393 renal
ASSAY REMARKS: NCI tumour cell line growth inhibition, 48 h
RECORDED ENDPOINT: TGI

Request: Need TGI of CC(C)N=C(NC#N)NS(=O)(=O)c1cnccc1NC1CCCCCCC1 , thanks.
Result: > 100 µM

---

System: DU-145 prostate
ASSAY REMARKS: NCI tumour cell line growth inhibition, 48 h
Reported TGI values for a set of compounds

- CCOC(=O)C(C(=O)OCC)C(=S)NC1OC(COC(C)=O)C(OC(C)=O)C(OC(C)=O)C1OC(C)=O (stereo not drawn): > 100 µM
- CCOC1=NC(C(F)(F)F)(C(F)(F)F)N=C(/N=C(/N)N(C)C(C(C)C)P(=O)(OC(C)C)OC(C)C)O1 (stereo not drawn): > 100 µM

Turning now to a further compound:
Request: May I ask what TGI has been recorded for CC(=O)O[C@H]1CC[C@@]2(C)[C@@H](CC[C@@H]3[C@@H]2CC(=O)[C@@]2(C)[C@H]3C[C@@H]3CC(C)=CC(=O)[C@@H]32)C1 ?
Result: > 100 µM

---

Below: a set of entries, each annotated with reported TGI.
Tested on: MDA-N
ASSAY REMARKS: NCI tumour cell line growth inhibition, 48 h

Examples with their reported TGI follow.
- O=Cc1ccc(Oc2c3ccccc3nc3ccccc23)cc1: 13.8 µM
- COc1ccc(-c2nc3ccccc3c(=O)[nH]2)cc1OC: > 100 µM

Request: Endpoint output: TGI of Cc1ccc(S(=O)(=O)N/N=C2/C3CC4CCC2C4C3)cc1 (stereo not given) . Value?
Result: > 100 µM

Request: Consider the molecule COc1ccc2oc(=O)c(-c3nc4ccccc4s3)cc2c1 and give its measured TGI.
Result: > 67.2 µM

Request: Item [B]C(=O)NC(CC(C)C)C(=O)NC1c2ccsc2C(=O)C1O (stereo not given) (tested in a mixture with another compound) has what recorded TGI?
Result: > 100 µM
